Give protein stability index for every item shown.
B1: SMAD6 (parent)
chain: SGLVRRLWRSRVVPDREEGGSGGG

# Variants of: B1
# TEST_METHOD_NOTES: protein stability index of a GFP-peptide fusion (GPS, HEK-293T) (PSI 1-6); higher = more stable;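 further: lentivirally expressed fusions sorted by FACS into six bins by GFP to DsRed ratio, PSI derived from sequencing read proportions per bin multiplied by bin number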
# MEASUREMENT_PARAMETERS: c terminus: a fixed tail appended
Numbers only.

INSERT INTO assay_data (primary_sequence, property_measured, data_value) VALUES
  ('SELVRRLWRSRVVPDREEGGSGGG [G2E]', 'protein stability index', 2.35),
  ('SGLVRRLWRSRVWPDREEGGSGGG [V13W]', 'protein stability index', 3.37),
  ('SGLVLRLWRSRVVPDREEGGSGGG [R5L]', 'protein stability index', 1.97);

Record protein stability index for all entries; do not skip any.
1. SVLVRRLWRSRVVPDREEGGSGGG [G2V]
2. SGLERRLWRSRVVPDREEGGSGGG [V4E]
3. SGLVCRLWRSRVVPDREEGGSGGG [R5C]

[3.03, 4.63, 2.46]
